Origin of values: patent US8410089B2

# targetEntity: human GPR119 (Homo sapiens, UniProt Q8TDV5)
# Construct: expressed in transfected cells
# Sequence (Q8TDV5 whole entry): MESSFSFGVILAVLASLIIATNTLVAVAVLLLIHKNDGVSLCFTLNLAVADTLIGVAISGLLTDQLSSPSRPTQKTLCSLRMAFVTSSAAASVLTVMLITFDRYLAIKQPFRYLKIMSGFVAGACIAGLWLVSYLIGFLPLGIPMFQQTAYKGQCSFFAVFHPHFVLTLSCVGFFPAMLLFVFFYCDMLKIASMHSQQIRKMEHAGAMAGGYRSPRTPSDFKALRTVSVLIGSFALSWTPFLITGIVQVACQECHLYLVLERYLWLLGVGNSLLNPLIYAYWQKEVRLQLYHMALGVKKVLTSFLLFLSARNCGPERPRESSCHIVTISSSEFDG
# assayComment: Human GPR119 agonist activity with increase of intracellular cAMP concentration as index (CRE-luciferase reporter assay in hGPR119/CRE-luc/CHO(dhfr-) cells)
# Assay type: cell-based
# conditionInfo: 1 μM test compound, 2 hr incubation; luciferase activity with 10 μM N-[4-(methylsulfonyl)phenyl]-5-nitro-6-{4-[4-(trifluoromethoxy)phenoxy]piperidin-1-yl}pyrimidin-4-amine = 100%, DMSO = 0%
So I've got a bunch of compounds here, and I need their GPR119 agonist activity (%) at 1 μM concentration values.
# unit: % | format: bare number

Per the record, "CC(C)SC(=O)N1CCC(Oc2cc(N3CCc4cc(S(C)(=O)=O)ccc43)ncn2)CC1" has GPR119 agonist activity (%) at 1 μM concentration of 82

Per the record, "CC(C)OC(=O)N1CCC(Oc2cc(N3CCc4cc(NC(=O)CO)ccc43)ncn2)CC1" has GPR119 agonist activity (%) at 1 μM concentration of 84

Per the record, "CC(C)SC(=O)N1CCC(Oc2cc(N3CCc4cc(S(C)(=O)=O)cc(F)c43)ncn2)CC1" has GPR119 agonist activity (%) at 1 μM concentration of 83

Per the record, "CC(C)c1noc(N2CCC(Oc3cc(N4CCc5cc(N6CCCC6=O)ccc54)ncn3)CC2)n1" has GPR119 agonist activity (%) at 1 μM concentration of 80
